All figures here come from patent US20140303127A1.

The entries below come with measured pIC50 values attached.
system-name: human muscarinic M3 receptor (Homo sapiens)
Construct: purchased Perkin Elmer; host or cells: CHO-K1 cells (membranes)
Sequence (P20309 whole entry): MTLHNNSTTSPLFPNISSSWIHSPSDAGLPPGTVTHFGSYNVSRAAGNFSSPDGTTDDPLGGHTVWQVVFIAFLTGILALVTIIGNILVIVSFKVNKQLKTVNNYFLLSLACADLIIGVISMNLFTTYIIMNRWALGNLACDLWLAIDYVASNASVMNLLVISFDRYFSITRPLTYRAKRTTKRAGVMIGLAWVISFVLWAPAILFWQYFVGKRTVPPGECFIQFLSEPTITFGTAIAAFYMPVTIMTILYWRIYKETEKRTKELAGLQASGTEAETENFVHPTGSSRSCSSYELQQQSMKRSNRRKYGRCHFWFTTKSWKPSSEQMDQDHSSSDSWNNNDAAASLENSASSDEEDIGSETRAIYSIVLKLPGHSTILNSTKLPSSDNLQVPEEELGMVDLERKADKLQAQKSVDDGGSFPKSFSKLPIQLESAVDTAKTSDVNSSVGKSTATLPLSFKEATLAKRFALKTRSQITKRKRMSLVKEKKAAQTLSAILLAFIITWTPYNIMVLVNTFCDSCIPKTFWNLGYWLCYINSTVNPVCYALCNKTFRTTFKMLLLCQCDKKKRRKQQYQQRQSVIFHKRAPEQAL
assay-comment: Human muscarinic M3 receptor binding assay ([3H]-NMS, CHO-K1 membranes)
pIC50: −log10 of the molar value.

structure-string	pIC50
COc1cc(-c2noc(CCCN(C)[C@H]3CC[C@H](OC(=O)C(O)(c4cccs4)c4cccs4)CC3)n2)c(Cl)cc1CNC[C@H](O)c1ccc(O)c2[nH]c(=O)ccc12	9.70
COc1cc(OCC(=O)N(C)CCN(C)[C@H]2CC[C@H](OC(=O)C(O)(c3cccs3)c3cccs3)CC2)c(Cl)cc1CNC[C@H](O)c1ccc(O)c2[nH]c(=O)ccc12	9.40
CN(CCCn1c(=O)[nH]c2cc(CNC[C@H](O)c3ccc(O)c4[nH]c(=O)ccc34)ccc21)[C@H]1CC[C@H](OC(=O)C(O)(c2cccs2)c2cccs2)CC1	9.40
